Attribute: EC50
- MEASURED_ON: Human GPR40 (Homo sapiens (Human), UniProt O14842)
- Sequence (O14842 whole entry): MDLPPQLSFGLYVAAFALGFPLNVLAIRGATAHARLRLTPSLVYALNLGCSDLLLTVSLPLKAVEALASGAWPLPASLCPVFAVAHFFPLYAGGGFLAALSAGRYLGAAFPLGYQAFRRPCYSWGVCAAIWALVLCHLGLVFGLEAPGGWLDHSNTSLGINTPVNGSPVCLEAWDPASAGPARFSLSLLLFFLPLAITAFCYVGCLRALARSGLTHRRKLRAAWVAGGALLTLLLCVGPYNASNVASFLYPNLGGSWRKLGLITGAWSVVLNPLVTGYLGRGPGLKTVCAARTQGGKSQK
- ASSAY_SUMMARY: Inositol Phosphate Turnover (IP1) Assay 1, HEK cells stably expressing human GPR40, 3H-inositol SPA
- Assay type: cell-based
- EXPERIMENTAL_CONDITIONS: HEK cells stably expressing human GPR40, 96-well

Reference set (3 entries):
[[record]]
compound = "C[C@H](C(=O)O)[C@H](c1cccc(OC[C@H]2CCN(Cc3cc(C(F)(F)F)ccc3C(F)(F)F)C2)c1)C1CC1"
measurement_type = "EC50"
result = "158 nM"

[[record]]
compound = "C[C@H](C(=O)O)[C@H](c1cccc(OC[C@@H]2CCN(Cc3cc(C(F)(F)F)ccc3C(F)(F)F)C2)c1)C1CC1"
measurement_type = "EC50"
result = "55 nM"

[[record]]
compound = "O=C(O)C[C@H](c1cccc(OC2CCCN(Cc3cc(C(F)(F)F)ccc3C(F)(F)F)C2)c1)C1CC1 (stereo partly shown)"
measurement_type = "EC50"
result = "524 nM"


Find the measured EC50: item "O=C(O)C[C@H](c1cccc(OC2CC3(C2)CN(Cc2cc(C(F)(F)F)ccc2C(F)(F)F)C3)c1)C1CC1" , target or system Human GPR40 (Homo sapiens (Human), UniProt O14842).
2080 nM

One more compound: "COc1cc(F)cc([C@H]2C[C@@H]2COc2cccc([C@H](C3CC3)[C@H](C)C(=O)O)c2)c1"
109 nM

One more compound: C[C@H](C(=O)O)[C@H](c1cccc(O[C@H]2CCCN(Cc3cc(C(F)(F)F)ccc3C(F)(F)F)C2)c1)C1CC1 [Example 1]
89 nM

One more compound: COc1cc(C2CC(COc3cccc([C@H](C4CC4)[C@H](C)C(=O)O)c3)C2)ccn1 (stereo partly shown) [Example 86]
102 nM
